Target: T1, soluble human GPNMB (recombinant extracellular domain) (human, UniProt Q14956 23-498)
T1 construct: also called huGPNMB; recombinant human GPNMB extracellular domain; not shown: C-terminal polyhistidine or Avi-His tag
T1 sequence: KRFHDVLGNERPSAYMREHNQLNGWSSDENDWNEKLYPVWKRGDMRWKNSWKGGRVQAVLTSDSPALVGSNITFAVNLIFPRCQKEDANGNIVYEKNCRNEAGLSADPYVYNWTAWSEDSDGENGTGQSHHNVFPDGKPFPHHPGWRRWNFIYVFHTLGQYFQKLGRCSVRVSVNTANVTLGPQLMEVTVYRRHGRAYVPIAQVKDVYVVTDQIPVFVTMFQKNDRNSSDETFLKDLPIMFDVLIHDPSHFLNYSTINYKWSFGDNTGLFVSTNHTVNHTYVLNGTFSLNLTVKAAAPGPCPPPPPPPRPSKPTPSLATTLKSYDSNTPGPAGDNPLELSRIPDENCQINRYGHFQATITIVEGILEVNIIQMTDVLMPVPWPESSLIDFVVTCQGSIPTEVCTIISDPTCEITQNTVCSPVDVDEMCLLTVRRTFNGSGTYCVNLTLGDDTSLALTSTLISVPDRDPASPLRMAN
Assay: SPR Biacore, IgG captured
attribute_measured: koff (s⁻¹)
# unit: s⁻¹ | format: bare number

The reported value for anti-GPNMB antibody GPN-97 (antibody, V domains shown) VH: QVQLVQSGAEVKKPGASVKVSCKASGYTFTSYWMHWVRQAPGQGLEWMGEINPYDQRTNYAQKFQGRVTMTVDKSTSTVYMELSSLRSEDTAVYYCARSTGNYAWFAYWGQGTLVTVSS VL: DIVMTQSPDSLAVSLGERATINCKTSQDVSPSLAWYQQKPGQPPKLLIYSGSYRYTGVPDRFSGSGSGTDFTLTISSLQAEDVAVYYCQQHYSIPLTFGGGTKVEIK in terms of koff is 0.00054

The reported value for anti-GPNMB antibody GPN-90 (antibody, V domains shown) VH: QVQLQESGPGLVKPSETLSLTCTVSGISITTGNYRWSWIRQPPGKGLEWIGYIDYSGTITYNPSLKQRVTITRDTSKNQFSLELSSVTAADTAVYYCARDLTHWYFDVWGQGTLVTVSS VL: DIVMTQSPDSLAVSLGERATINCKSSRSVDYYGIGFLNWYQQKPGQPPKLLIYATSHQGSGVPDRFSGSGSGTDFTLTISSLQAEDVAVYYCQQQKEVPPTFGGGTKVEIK in terms of koff is 0.00053

The reported value for anti-GPNMB antibody GPN-85 (antibody, V domains shown) VH: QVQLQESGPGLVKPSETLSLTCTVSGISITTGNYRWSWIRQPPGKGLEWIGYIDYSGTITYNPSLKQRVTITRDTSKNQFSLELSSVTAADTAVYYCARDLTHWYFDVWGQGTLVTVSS VL: DIVMTQSPDSLAVSLGERATINCKSSRSVDYFGIGFLNWYQQKPGQPPKLLIYATSHQGSGVPDRFSGSGSGTDFTLTISSLQAEDVAVYYCQQQKEVPPTFGGGTKVEIK in terms of koff is 0.00018
